Data origin, for the record: the supplement of paper PMC9112550

Each entry below carries its recorded shrunken log2 fold change.
Tested on: Escherichia coli TOP10;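 also: peptides expressed intracellularly from a pBAD plasmid library in pooled LB shake-flask culture, induced with 0.3% L-arabinose, DNA abundance read by NGS, three biological replicates, DESeq2 with apeglm shrinkage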
PROTOCOL DESCRIPTION: shrunken log2 fold change of peptide-encoding DNA abundance (4.5 h post-induction vs induction); higher = less antimicrobial activity (less host growth inhibition)
ASSAY SETUP: time post-induction: 4.5 h; library: site-saturation at positions 5, 18, 19, 20
Give your answer as a number; write no unit.

The following sequences have reported results that may help.
QUERY SEQUENCE	shrunken log2 fold change
RRIRQRPPRLPRPRPRPPRLPRP	0.287
RRIRERPPRLPRPRPRPDTGPRP	-0.161
RRIRDRPPRLPRPRPRPLHTPRP	-0.0544
RRIRIRPPRLPRPRPRPMERPRP	-0.0018
RRIRERPPRLPRPRPRPFTHPRP	-0.0134

Q. Fill: shrunken log2 fold change (Escherichia coli TOP10) for this sequence RRIRQRPPRLPRPRPRPGWCPRP
A. 0.0842

Q. Fill: shrunken log2 fold change (Escherichia coli TOP10) for this sequence RRIRNRPPRLPRPRPRPWWNPRP
A. -0.141

Q. Fill: shrunken log2 fold change (Escherichia coli TOP10) for this sequence RRIRQRPPRLPRPRPRPLHNPRP
A. 0.00263
